From: ChEMBL document CHEMBL2203009

# Assay text: Toxicity in MDCK cells assessed as induction of cell morphology changes
# Assay type: cell-based, Canis lupus familiaris
# Measurement context: dog
Below, each entry is listed alongside its reported MCC.
Value expressed in µM; do not type the unit.

CC(=O)N[C@H]1[C@H](O[C@@H]2c3ccc(c(Cl)c3)Oc3cc4cc(c3O)Oc3ccc(cc3Cl)C[C@H]3NC(=O)[C@H](n5cc6cc7ccccc7cc6c5Sc5ncccn5)c5ccc(O)c(c5)Oc5cc(O)cc(c5)[C@H](NC3=O)C(=O)N[C@H]4C(=O)N[C@H]3C(=O)N[C@@H]2C(=O)N[C@H](C(=O)O)c2cc(O)cc(O)c2-c2cc3ccc2O)O[C@H](CO)[C@@H](O)[C@@H]1O ... 13

# input compound: `CC(=O)N[C@H]1[C@H](O[C@@H]2c3ccc(c(Cl)c3)Oc3cc4cc(c3O)Oc3ccc(cc3Cl)C[C@H]3NC(=O)[C@H](n5cc6ccccc6c5S[C@@H]5O[C@H](COC(C)=O)[C@@H](OC(C)=O)[C@H](OC(C)=O)[C@H]5OC(C)=O)c5ccc(O)c(c5)Oc5cc(O)cc(c5)[C@H](NC3=O)C(=O)N[C@H]4C(=O)N[C@H]3C(=O)N[C@@H]2C(=O)N[C@H](C(=O)O)c2cc(O)cc(O)c2-c2cc3ccc2O)O[C@H](CO)[C@@H](O)[C@@H]1O` ; wanted: its MCC
20

# input compound: `CC(=O)N[C@H]1[C@H](O[C@@H]2c3ccc(c(Cl)c3)Oc3cc4cc(c3O)Oc3ccc(cc3Cl)C[C@H]3NC(=O)[C@H](n5cc6ccccc6c5Sc5ccccc5)c5ccc(O)c(c5)Oc5cc(O)cc(c5)[C@H](NC3=O)C(=O)N[C@H]4C(=O)N[C@H]3C(=O)N[C@@H]2C(=O)N[C@H](C(=O)O)c2cc(O)cc(O)c2-c2cc3ccc2O)O[C@H](CO)[C@@H](O)[C@@H]1O` ; wanted: its MCC
4

# input compound: `CC(=O)N[C@H]1[C@H](O[C@@H]2c3ccc(c(Cl)c3)Oc3cc4cc(c3O)Oc3ccc(cc3Cl)C[C@H]3NC(=O)[C@H](n5cc6ccccc6c5Sc5ncccn5)c5ccc(O)c(c5)Oc5cc(O)cc(c5)[C@H](NC3=O)C(=O)N[C@H]4C(=O)N[C@H]3C(=O)N[C@@H]2C(=O)N[C@H](C(=O)O)c2cc(O)cc(O)c2-c2cc3ccc2O)O[C@H](CO)[C@@H](O)[C@@H]1O` ; wanted: its MCC
20

* * *

# Tested on: Human alphaherpesvirus 1
# Assay text: Antiviral activity against HSV1 KOS infected in HEL cells assessed as inhibition of virus-induced cytopathic effect
# Format: functional, organism-based
# Measurement context: Human alphaherpesvirus 1, KOS
So basically, if EC50 comes in under 40 µM it's 1, and if it's 40 µM or more it's 0.

CC(=O)N[C@@H]1[C@@H](O)[C@H](O)[C@@H](CO)O[C@H]1Sc1c2ccccc2cn1[C@H]1C(=O)N[C@@H]2Cc3ccc(c(Cl)c3)Oc3cc4cc(c3O)Oc3ccc(cc3Cl)[C@@H](O[C@@H]3O[C@H](CO)[C@@H](O)[C@H](O)[C@H]3NC(C)=O)[C@@H]3NC(=O)[C@H](NC(=O)[C@@H]4NC(=O)[C@@H](NC2=O)c2cc(O)cc(c2)Oc2cc1ccc2O)c1ccc(O)c(c1)-c1c(O)cc(O)cc1[C@@H](C(=O)O)NC3=O ... 0
Nc1ccn(C[C@@H](CO)OCP(=O)(O)O)c(=O)n1 ... 1
Nc1nc2c(ncn2COC(CO)CO)c(=O)[nH]1 ... 1
CC(=O)N[C@H]1[C@H](O[C@@H]2c3ccc(c(Cl)c3)Oc3cc4cc(c3O)Oc3ccc(cc3Cl)C[C@H]3NC(=O)[C@H](n5cc6cc7ccccc7cc6c5Sc5nc6ccccc6s5)c5ccc(O)c(c5)Oc5cc(O)cc(c5)[C@H](NC3=O)C(=O)N[C@H]4C(=O)N[C@H]3C(=O)N[C@@H]2C(=O)N[C@H](C(=O)O)c2cc(O)cc(O)c2-c2cc3ccc2O)O[C@H](CO)[C@@H](O)[C@@H]1O ... 0
CC(=O)N[C@H]1[C@H](O[C@@H]2c3ccc(c(Cl)c3)Oc3cc4cc(c3O)Oc3ccc(cc3Cl)C[C@H]3NC(=O)[C@H](n5cc6ccccc6c5Sc5ncccn5)c5ccc(O)c(c5)Oc5cc(O)cc(c5)[C@H](NC3=O)C(=O)N[C@H]4C(=O)N[C@H]3C(=O)N[C@@H]2C(=O)N[C@H](C(=O)O)c2cc(O)cc(O)c2-c2cc3ccc2O)O[C@H](CO)[C@@H](O)[C@@H]1O ... 0
CC(=O)N[C@H]1[C@H](O[C@@H]2c3ccc(c(Cl)c3)Oc3cc4cc(c3O)Oc3ccc(cc3Cl)C[C@H]3NC(=O)[C@H](n5cc6ccccc6c5Sc5ccccc5)c5ccc(O)c(c5)Oc5cc(O)cc(c5)[C@H](NC3=O)C(=O)N[C@H]4C(=O)N[C@H]3C(=O)N[C@@H]2C(=O)N[C@H](C(=O)O)c2cc(O)cc(O)c2-c2cc3ccc2O)O[C@H](CO)[C@@H](O)[C@@H]1O ... 1

Now look at this entry.
Below 40 µM on EC50? Entry `CC(=O)N[C@H]1[C@H](O[C@@H]2c3ccc(c(Cl)c3)Oc3cc4cc(c3O)Oc3ccc(cc3Cl)C[C@H]3NC(=O)[C@H](n5cc6ccccc6c5Sc5nc6ccccc6s5)c5ccc(O)c(c5)Oc5cc(O)cc(c5)[C@H](NC3=O)C(=O)N[C@H]4C(=O)N[C@H]3C(=O)N[C@@H]2C(=O)N[C@H](C(=O)O)c2cc(O)cc(O)c2-c2cc3ccc2O)O[C@H](CO)[C@@H](O)[C@@H]1O`
0

* * *

# Test system: Human alphaherpesvirus 1
# Assay text: Antiviral activity against HSV1 KOS infected in HEL cells assessed as inhibition of virus-induced cytopathic effect
# Assay type: functional, organism-based
# Measurement context: Human alphaherpesvirus 1, KOS
Parameter: pEC50
Please treat pEC50 as minus the base-10 logarithm of the molar concentration.

CC(=O)N[C@@H]1[C@@H](OC(C)=O)[C@H](OC(C)=O)[C@@H](COC(C)=O)O[C@H]1Sc1c2ccccc2cn1[C@H]1C(=O)N[C@@H]2Cc3ccc(c(Cl)c3)Oc3cc4cc(c3O)Oc3ccc(cc3Cl)[C@@H](O[C@@H]3O[C@H](CO)[C@@H](O)[C@H](O)[C@H]3NC(C)=O)[C@@H]3NC(=O)[C@H](NC(=O)[C@@H]4NC(=O)[C@@H](NC2=O)c2cc(O)cc(c2)Oc2cc1ccc2O)c1ccc(O)c(c1)-c1c(O)cc(O)cc1[C@@H](C(=O)O)NC3=O ... 4.40

Next, consider the following molecule.
# input molecule: Nc1nc2c(ncn2COCCO)c(=O)[nH]1 [ACYCLOVIR] ; wanted: its pEC50
6.85

* * *

# System: Staphylococcus aureus
# Assay text: Antimicrobial activity against methicillin-resistant Staphylococcus aureus ATCC 33591
# Format: functional
Parameter: MIC (µg/mL)
Value expressed in µg/mL; do not type the unit.

In the examples that follow, each entry is paired with its recorded MIC.
CC(=O)N[C@@H]1[C@@H](OC(C)=O)[C@H](OC(C)=O)[C@@H](COC(C)=O)O[C@H]1Sc1c2ccccc2cn1[C@H]1C(=O)N[C@@H]2Cc3ccc(c(Cl)c3)Oc3cc4cc(c3O)Oc3ccc(cc3Cl)[C@@H](O[C@@H]3O[C@H](CO)[C@@H](O)[C@H](O)[C@H]3NC(C)=O)[C@@H]3NC(=O)[C@H](NC(=O)[C@@H]4NC(=O)[C@@H](NC2=O)c2cc(O)cc(c2)Oc2cc1ccc2O)c1ccc(O)c(c1)-c1c(O)cc(O)cc1[C@@H](C(=O)O)NC3=O ... 0.0625
CC(=O)N[C@@H]1[C@@H](O)[C@H](O)[C@@H](CO)O[C@H]1Sc1c2ccccc2cn1[C@H]1C(=O)N[C@@H]2Cc3ccc(c(Cl)c3)Oc3cc4cc(c3O)Oc3ccc(cc3Cl)[C@@H](O[C@@H]3O[C@H](CO)[C@@H](O)[C@H](O)[C@H]3NC(C)=O)[C@@H]3NC(=O)[C@H](NC(=O)[C@@H]4NC(=O)[C@@H](NC2=O)c2cc(O)cc(c2)Oc2cc1ccc2O)c1ccc(O)c(c1)-c1c(O)cc(O)cc1[C@@H](C(=O)O)NC3=O ... 1
CC(=O)N[C@H]1[C@H](O[C@@H]2c3ccc(c(Cl)c3)Oc3cc4cc(c3O)Oc3ccc(cc3Cl)C[C@H]3NC(=O)[C@H](n5cc6cc7ccccc7cc6c5Sc5nc6ccccc6s5)c5ccc(O)c(c5)Oc5cc(O)cc(c5)[C@H](NC3=O)C(=O)N[C@H]4C(=O)N[C@H]3C(=O)N[C@@H]2C(=O)N[C@H](C(=O)O)c2cc(O)cc(O)c2-c2cc3ccc2O)O[C@H](CO)[C@@H](O)[C@@H]1O ... 0.015
CC(=O)N[C@H]1[C@H](O[C@@H]2c3ccc(c(Cl)c3)Oc3cc4cc(c3O)Oc3ccc(cc3Cl)C[C@H]3NC(=O)[C@H](n5cc6cc7ccccc7cc6c5Sc5ccccc5)c5ccc(O)c(c5)Oc5cc(O)cc(c5)[C@H](NC3=O)C(=O)N[C@H]4C(=O)N[C@H]3C(=O)N[C@@H]2C(=O)N[C@H](C(=O)O)c2cc(O)cc(O)c2-c2cc3ccc2O)O[C@H](CO)[C@@H](O)[C@@H]1O ... 0.25

# input compound: `CC(=O)N[C@H]1[C@H](O[C@@H]2c3ccc(c(Cl)c3)Oc3cc4cc(c3O)Oc3ccc(cc3Cl)C[C@H]3NC(=O)[C@H](n5cc6ccccc6c5Sc5ccccc5)c5ccc(O)c(c5)Oc5cc(O)cc(c5)[C@H](NC3=O)C(=O)N[C@H]4C(=O)N[C@H]3C(=O)N[C@@H]2C(=O)N[C@H](C(=O)O)c2cc(O)cc(O)c2-c2cc3ccc2O)O[C@H](CO)[C@@H](O)[C@@H]1O` ; wanted: its MIC
0.0625
